Origin of measurements: patent US9255106B2

# System: U251
# Experimental Details: Inhibition of tumor cell proliferation, U251
# Condition Context: Homo sapiens, U-251
Property Name: pIC50
Just so you know, pIC50 here is -log10 of the concentration in molar units; reply with that number alone.

Exercise: Using the record for O=C(c1cc(Cc2n[nH]c(=O)c3ccccc23)ccc1F)N1CCN(C(=O)C2CC2)CC1 [AZD2281, olaparib, reference compound] , state its measured pIC50.
Key: 5.92

----------
# Tested on: V8 cell
# Experimental Details: PARP1 inhibitory activity at cellular level (proliferation inhibition model)
# Condition Context: read-out: PARP1 inhibitory activity at cellular level (%)
Reported inhibition at 0.04 µM by item:
# number only, unit % dropped from output

Some solved cases for reference:
INSERT INTO measurements (molecule, experimental_value) VALUES
  ('CC1CN(C(=O)c2cc(Cc3n[nH]c(=O)c4ccccc34)ccc2F)Cc2nnc(CF)n21 (stereo not shown) [Compound S18]', 77),
  ('CC1c2nnc(C(F)(F)F)n2C(C)CN1C(=O)c1cc(Cc2n[nH]c(=O)c3ccccc23)ccc1F (stereo not shown) [Compound S5]', 23.5);

Exercise: Using the record for CC1c2nnc(CF)n2C(C)CN1C(=O)c1cc(Cc2n[nH]c(=O)c3ccccc23)ccc1F (stereo not shown) [Compound S19] , state its measured inhibition at 0.04 µM.
Key: 3.32

Exercise: Using the record for CC1CN(C(=O)c2cc(Cc3n[nH]c(=O)c4ccccc34)ccc2F)Cc2nnc(C(F)F)n21 (stereo not shown) [Compound S17] , state its measured inhibition at 0.04 µM.
Key: 65.6
